settings: female, Sprague Dawley, rat, plasma, po, 350 mg/kg
parameter: Tmax (h)
Report only the number, with the unit h understood.

1) O=C(O)CNC(=O)c1ccccc1    12

# context switch: different compound, same Tmax
Returns the measured Tmax for the input compound. Input: O=C(O)[C@H]1O[C@@H](Oc2c(-c3ccc(O)c(O)c3)oc3cc(O)cc(O)c3c2=O)[C@H](O)[C@@H](O)[C@@H]1O [Quercetin glucuronide, quercetin-3-O-glucuronide]
6

====

Measured Cmax of individual entries
conditions: female, Sprague Dawley, rat, plasma, po, 350 mg/kg
Write it as a number; the unit nM goes unstated.

1) O=C(O)[C@H]1O[C@@H](Oc2c(-c3ccc(O)c(O)c3)oc3cc(O)cc(O)c3c2=O)[C@H](O)[C@@H](O)[C@@H]1O [Quercetin glucuronide, quercetin-3-O-glucuronide]    8

Value lookup for Cmax; key = O=C(O)CNC(=O)c1ccccc1
1540
